# Experimental system: Ghrelin receptor (Homo sapiens, UniProt Q92847)
# Sequence (Q92847 whole entry): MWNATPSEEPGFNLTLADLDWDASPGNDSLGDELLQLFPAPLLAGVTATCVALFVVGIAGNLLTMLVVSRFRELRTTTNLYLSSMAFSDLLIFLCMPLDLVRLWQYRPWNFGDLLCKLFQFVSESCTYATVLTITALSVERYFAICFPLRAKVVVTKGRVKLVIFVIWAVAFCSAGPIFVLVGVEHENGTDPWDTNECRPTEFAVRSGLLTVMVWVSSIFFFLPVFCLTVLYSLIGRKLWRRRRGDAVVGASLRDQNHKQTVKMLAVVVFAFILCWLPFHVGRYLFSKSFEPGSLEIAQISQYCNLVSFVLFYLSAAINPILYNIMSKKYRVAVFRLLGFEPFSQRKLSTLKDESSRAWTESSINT
# Test method notes: Receptor Selection and Amplification Technology (R-SAT) assay
# Assay type: cell-based
# Parameters: expressed in transfected cells; host or cells: NIH3T3
# Study conditions: […]; '—' not defined (nd used separately); read-out: RSAT pIC50 (converted)
Outcome measure: IC50

> print(dat)
                                    compound                       experimental.system  outcome.measure  recorded.measurement
 1  COc1cccc2c(C(=O)C3CC3)cn(CCCN3CCCC(Oc4ccc(Cl)cc4)C3)c12 (stereo not shown)  Ghrelin receptor (Homo sapiens, UniProt Q92847)             IC50                126 nM
 2  COc1cccc2c(C(=O)c3ccccc3)cn(CCCNCCOc3ccccc3)c12  Ghrelin receptor (Homo sapiens, UniProt Q92847)             IC50                 20 nM
 3  COc1cccc2c(C(=O)NCc3cccc(C)c3)cn(CCCN3CCC(Oc4ccccc4Cl)CC3)c12  Ghrelin receptor (Homo sapiens, UniProt Q92847)             IC50               12.6 nM
 4  COc1cccc2c(C(=O)C3CC3)cn(CCCN3CCC(c4nc(-c5cccnc5)no4)CC3)c12  Ghrelin receptor (Homo sapiens, UniProt Q92847)             IC50               39.8 nM
 5  CC(=O)c1c(C)n(CCCN2CCCN(CCc3ccccc3)CC2)c2c(Br)cccc12  Ghrelin receptor (Homo sapiens, UniProt Q92847)             IC50                501 nM
 6  COc1cccc2c(C(=O)c3ccccc3)cn(CCCN3C4CCC3CC(CC(=O)c3ccc(Cl)cc3)C4)c12 (stereo not shown)  Ghrelin receptor (Homo sapiens, UniProt Q92847)             IC50                251 nM
 7  COc1cccc2c(C(=O)C3CC3)cn(CCCN3CCC(N4C(=O)Cc5ccccc54)CC3)c12  Ghrelin receptor (Homo sapiens, UniProt Q92847)             IC50               39.8 nM
 8  COc1cccc2c(C(=O)Cc3ccccc3)cn(CCCN3CCN(CCOc4ccccc4)CC3)c12  Ghrelin receptor (Homo sapiens, UniProt Q92847)             IC50               12.6 nM
 9  COc1cccc2c(C(=O)NCc3cccc(Cl)c3)cn(CCCN3CCC(c4nc5ccccc5s4)CC3)c12  Ghrelin receptor (Homo sapiens, UniProt Q92847)             IC50               79.4 nM
10  CCC(=O)c1cn(CCCN2CCC(O)(Cc3ccccc3)CC2)c2ccccc12  Ghrelin receptor (Homo sapiens, UniProt Q92847)             IC50               1000 nM
11  COc1cccc2c(C(=O)c3ccccc3)cn(CCCN3CCC(Oc4ccc(Cl)cc4)CC3)c12  Ghrelin receptor (Homo sapiens, UniProt Q92847)             IC50               6.31 nM
12  COc1cccc2c(C(=O)NCC(C)C)cn(CCCN3CCN(Cc4ccc(Cl)cc4Cl)CC3)c12  Ghrelin receptor (Homo sapiens, UniProt Q92847)             IC50               25.1 nM
13  COc1cccc2c(C(=O)Cc3ccccc3)cn(CCCN3CCC(c4nc(-c5ccncc5)no4)CC3)c12  Ghrelin receptor (Homo sapiens, UniProt Q92847)             IC50               25.1 nM
14  COc1cccc2c(C(=O)NCC(C)C)cn(CCCN3CCN(c4ncc(C(F)(F)F)cc4Cl)CC3)c12  Ghrelin receptor (Homo sapiens, UniProt Q92847)             IC50               31.6 nM
15  COc1ccc2[nH]c3c(c2c1)CCN(CCCn1cc(C(C)=O)c2cccc(OC)c21)C3  Ghrelin receptor (Homo sapiens, UniProt Q92847)             IC50               50.1 nM
16  COc1cccc2c(C(=O)NCc3cccc(C)c3)cn(CCCNC3Cc4ccccc4C3)c12  Ghrelin receptor (Homo sapiens, UniProt Q92847)             IC50                398 nM
17  COc1cccc2c(C(=O)NCc3cccc(Cl)c3)cn(CCCN3CCCN(Cc4ccccc4Cl)CC3)c12  Ghrelin receptor (Homo sapiens, UniProt Q92847)             IC50                 20 nM
18  COc1cccc2c(C(=O)NCc3cccc(Cl)c3)cn(CCCN3CCCC(Cc4ccccc4Cl)C3)c12 (stereo not shown)  Ghrelin receptor (Homo sapiens, UniProt Q92847)             IC50               2000 nM
19  COc1ccccc1C1CCN(CCCn2cc(C(=O)NCc3cccc(Cl)c3)c3cccc(OC)c32)CC1  Ghrelin receptor (Homo sapiens, UniProt Q92847)             IC50                631 nM
20  COc1cccc2c(C(=O)NCc3cccc(C)c3)cn(CCCN3C4CCC3CC(CCc3ccc(Cl)cc3)C4)c12 (stereo not shown)  Ghrelin receptor (Homo sapiens, UniProt Q92847)             IC50               25.1 nM
21  COc1cccc2c(C(=O)c3ccccc3)cn(CCCN3CCN(CCOc4ccccc4)CC3)c12  Ghrelin receptor (Homo sapiens, UniProt Q92847)             IC50               12.6 nM
22  CC(C)CC(=O)c1cn(CCCN2CCN(C(C)c3ccccc3)CC2)c2ccccc12 (stereo not shown)  Ghrelin receptor (Homo sapiens, UniProt Q92847)             IC50                398 nM
23  COc1cccc2c(C(=O)C3CC3)cn(CCCN3CCC4(CC3)CC(=O)c3ccccc3O4)c12  Ghrelin receptor (Homo sapiens, UniProt Q92847)             IC50               3.98 nM
24    CCCOC1CCN(CCCn2cc(C(C)=O)c3ccccc32)CC1  Ghrelin receptor (Homo sapiens, UniProt Q92847)             IC50                631 nM
25  COc1cccc2c(C(=O)NCc3cccc(Cl)c3)cn(CCCN3CCN(CCOc4ccccc4)CC3)c12  Ghrelin receptor (Homo sapiens, UniProt Q92847)             IC50               79.4 nM
26  COc1cccc2c(C(C)=O)cn(CCCN3CCC(Oc4ccc(F)cc4)CC3)c12 [drawing 256]  Ghrelin receptor (Homo sapiens, UniProt Q92847)             IC50               3.98 nM
27  COc1cccc2c(C(C)=O)cn(CCCN3CCC(N4CCOCC4)CC3)c12  Ghrelin receptor (Homo sapiens, UniProt Q92847)             IC50               1000 nM
28  COc1cccc2c(C(=O)NCc3cccc(Cl)c3)cn(CCCN3CCCN(CCc4ccccc4)CC3)c12  Ghrelin receptor (Homo sapiens, UniProt Q92847)             IC50                 20 nM
29  COc1cccc2c(C(=O)c3ccccc3)cn(CCCNC3Cc4ccccc4C3)c12  Ghrelin receptor (Homo sapiens, UniProt Q92847)             IC50                316 nM
30  CCCCC[C@H]1C[C@H]2CC[C@@H](C1)N2CCCn1cc(C(C)=O)c2cccc(Cl)c21  Ghrelin receptor (Homo sapiens, UniProt Q92847)             IC50                316 nM
31  COc1ccccc1C1CCN(CCCn2cc(C(=O)NCc3cccc(C)c3)c3cccc(OC)c32)CC1  Ghrelin receptor (Homo sapiens, UniProt Q92847)             IC50                126 nM
32  COc1cccc2c(C(=O)NCc3cccc(Cl)c3)cn(CCCN3CCC4(CC3)CC(=O)c3ccccc3O4)c12  Ghrelin receptor (Homo sapiens, UniProt Q92847)             IC50               63.1 nM
33  COc1cccc2c(C(=O)NCC(C)C)cn(CCCN3CCCN(Cc4ccccc4Cl)CC3)c12  Ghrelin receptor (Homo sapiens, UniProt Q92847)             IC50               15.8 nM
34  COc1cccc2c(C(=O)NCC(C)C)cn(CCCN3CCC4(CC3)CC(=O)c3ccccc3O4)c12  Ghrelin receptor (Homo sapiens, UniProt Q92847)             IC50               12.6 nM
35  COc1cccc2c(C(=O)C3CC3)cn(CCCNC3Cc4ccccc4C3)c12  Ghrelin receptor (Homo sapiens, UniProt Q92847)             IC50               25.1 nM
36  CCCCC1CCN(CCCn2cc(C(C)=O)c3ccccc32)CC1 [drawing 584]  Ghrelin receptor (Homo sapiens, UniProt Q92847)             IC50                631 nM
37  COc1cccc2c(C(=O)NCc3cccc(Cl)c3)cn(CCCN3C4CCC3CC(CC(=O)c3ccc(Cl)cc3)C4)c12 (stereo not shown)  Ghrelin receptor (Homo sapiens, UniProt Q92847)             IC50                316 nM

This collection of values is drawn from patent US20070213359A1.
